Ref: PubChem BioAssay (NCI)

Test: NCI Yeast Anticancer Drug Screen. Data for the mlh1 rad18 strain (AID 175)
Conditions: S. cerevisiae mlh1 rad18 strain growth inhibition; at 50.0 µM; hits give high values
This is part of a sample that, as a whole, favours compounds with a hit. Of some 79,000 tested, about 15% had one in any assay.

>  <molecule>
CC(=O)Nc1ccc(C2CC(c3ccc([N+](=O)[O-])cc3)=Nc3ccccc3S2)cc1 (stereo not given)

>  <growth inhibition [%]>
49.9

$$$$
>  <molecule>
CCO/C([O-])=C(\C=N\S(=O)(=O)c1ccc(C)cc1)[n+]1ccc(C)cc1

>  <growth inhibition [%]>
6.45

$$$$
>  <molecule>
COc1cc(-c2oc3c(OC)c(OC)cc(O)c3c(=O)c2OC)ccc1O

>  <growth inhibition [%]>
-0.05

$$$$
>  <molecule>
O=c1[nH]c2cc(Cl)ccc2nc1/C(=N/Nc1ccccc1)C(O)c1ccco1 (stereo not given)

>  <growth inhibition [%]>
-54.4

$$$$
>  <molecule>
COC1OC(=O)c2ccccc21 (stereo not given)

>  <growth inhibition [%]>
12.8

$$$$

---

Test: NCI Yeast Anticancer Drug Screen. Data for the mec2-1 strain (AID 157)
Settings: S. cerevisiae mec2-1 strain, at 50.0 µM, hits give high values
About 79,000 compounds went through this panel and 15% of them were active in at least one assay; those are over-represented in the sample as a whole.

>  <compound>
COC(=O)C1=C(C)C(=O)[C@]23C(CCCC[C@H]12)C(=O)[C@H](C(=O)OC)C3C (some centres not stated)

>  <growth inhibition (%)>
-31.2

$$$$
>  <compound>
C[Si](C)(C)c1ccc(C(=O)O)cc1

>  <growth inhibition (%)>
12.6

$$$$
>  <compound>
O=C(O)C1=C(c2ccccc2)C=C(c2ccccc2)C1

>  <growth inhibition (%)>
0.2

$$$$
>  <compound>
Nc1ncncc1Oc1ccccc1

>  <growth inhibition (%)>
-5.35

$$$$
>  <compound>
CNC(=O)n1cnc2ccccc21

>  <growth inhibition (%)>
30.4

$$$$
>  <compound>
CCCCCCCCCCCCCCOc1ccc2ccccc2c1

>  <growth inhibition (%)>
6.7

$$$$
>  <compound>
CCSc1n[nH]c(=O)nc1NN

>  <growth inhibition (%)>
-3.85

$$$$
>  <compound>
Cc1ccc(C2=Nc3cccc4cccc(c34)N2)cc1

>  <growth inhibition (%)>
-71.7

$$$$
>  <compound>
CCCCCCCCNC(=O)/C(=C\c1ccc(/C=C(/NC(=O)c2ccccc2)C(=O)NCCCCCCCC)cc1)NC(=O)c1ccccc1

>  <growth inhibition (%)>
-23.4

$$$$
>  <compound>
C[Si](C)(/C(=C/COCc1ccccc1)CCOC1CCCCO1)c1ccccc1 (configuration not stated)

>  <growth inhibition (%)>
-6.95

$$$$
>  <compound>
COc1ccc(N2C(=O)CSC2=S)cc1

>  <growth inhibition (%)>
0

$$$$
>  <compound>
CC1=CC(C(O)C(C)C)C(C)(Cc2ccc(C)cn2)NC1c1ccccc1 (configuration not stated)

>  <growth inhibition (%)>
-6.3

$$$$
>  <compound>
CCC1OC(=O)CC(O)C(C)C(OC2OC(C)C(O)C(N(C)C)C2O)C(CC=O)CC(C)C(=O)/C=C/C2(C)OC2C1C (configuration not stated)

>  <growth inhibition (%)>
-43

$$$$
>  <compound>
CC1=N/C(=C\c2cccs2)C(=O)O1

>  <growth inhibition (%)>
30.5

$$$$
>  <compound>
COc1ccc(Cc2ccccc2)cc1

>  <growth inhibition (%)>
-13.2

$$$$
>  <compound>
NC(=O)C1C(=O)NC(=O)C1=O (configuration not stated)

>  <growth inhibition (%)>
-17.9

$$$$
>  <compound>
CN(NC(=O)c1ccco1)C1=NCCCCN1

>  <growth inhibition (%)>
-10.6

$$$$
>  <compound>
O=c1c2cc3c(=O)n(O)c(=O)c3cc2c(=O)n1O

>  <growth inhibition (%)>
-18.2

$$$$
>  <compound>
CCC1(C(=O)OC)CCC2C3CCC4CCCCC4(C)C3CCC21C (configuration not stated)

>  <growth inhibition (%)>
-8.9

$$$$
>  <compound>
Cc1cnc2[nH]c(-c3cccc4ccccc34)cc(=O)c2c1

>  <growth inhibition (%)>
7

$$$$
>  <compound>
CCSC(SCC)C(NC(C)=O)C(O)C(O)COC(=O)c1ccccc1 (configuration not stated)

>  <growth inhibition (%)>
17.3

$$$$
>  <compound>
C#CC(C)OC(=O)Nc1ccccc1 (configuration not stated)

>  <growth inhibition (%)>
-22.2

$$$$
>  <compound>
NCC1OC(n2cnc3c(N)ncnc32)CC1O (configuration not stated)

>  <growth inhibition (%)>
-2.75

$$$$
>  <compound>
CCCCCCCCCCCCCCCCOc1ccccn1

>  <growth inhibition (%)>
-20.6

$$$$
>  <compound>
O=C(O)CC/C(=N\Nc1ccc([N+](=O)[O-])cc1[N+](=O)[O-])c1ccccc1

>  <growth inhibition (%)>
26.4

$$$$
>  <compound>
COC(=O)Nc1nc2ccccc2n1-c1ccccc1

>  <growth inhibition (%)>
2.85

$$$$
>  <compound>
O=C(OCC(Br)C(Br)c1ccccc1)c1ccccc1 (configuration not stated)

>  <growth inhibition (%)>
-12.6

$$$$
>  <compound>
CCCCCCCCCCCCOc1ccc(Sc2ccc(OCCCCCCCCCCCC)cc2C)c(C)c1

>  <growth inhibition (%)>
-8.05

$$$$
>  <compound>
CC(C)=CCCC(C)C1CCC2C3CC=C4CC(O)CCC4(C)C3CCC12C (configuration not stated)

>  <growth inhibition (%)>
45

$$$$
>  <compound>
CCCCCCC(=O)c1ccc2ccccc2c1O

>  <growth inhibition (%)>
-14.8

$$$$
>  <compound>
O=C1c2ccccc2C(=O)C2CC(c3ccccc3)=CCC12 (configuration not stated)

>  <growth inhibition (%)>
10.1

$$$$
>  <compound>
N#Cc1c(N)[n+]([O-])c2c([n+]1[O-])CCCC2

>  <growth inhibition (%)>
3.35

$$$$
>  <compound>
COc1cc(CCNC2=CC(=O)c3cccnc3C2=O)ccc1O

>  <growth inhibition (%)>
24.1

$$$$
>  <compound>
Nc1cc(Cl)c(I)c(Cl)c1

>  <growth inhibition (%)>
-29.6

$$$$
>  <compound>
C=CC1=C(C)C2=NC1=CC1=NC(=CC3=C(C)C4=C(O)CC(=C5NC(=C2)C(C)C5CCC(=O)OC)C4=N3)C(CC)=C1C (configuration not stated)

>  <growth inhibition (%)>
-1.5

$$$$
>  <compound>
C=CC1C(=O)N(C)[C@H](C(C)(C)C)N1C(=O)c1ccccc1 (some centres not stated)

>  <growth inhibition (%)>
11.9

$$$$
>  <compound>
Nc1nc(SSc2nc(N)nc3c2ncn3C2OC(CO)C(O)C2O)c2ncn(C3OC(CO)C(O)C3O)c2n1 (configuration not stated)

>  <growth inhibition (%)>
-5.8

$$$$
>  <compound>
CCOC(=O)c1c(Nc2ccccc2O)oc2ccccc12

>  <growth inhibition (%)>
3.1

$$$$
>  <compound>
O=C(NC1(C(=O)Oc2ccc([N+](=O)[O-])cc2)CCCC1)OCc1ccccc1

>  <growth inhibition (%)>
20.2

$$$$
>  <compound>
OCc1cc(Cl)cc(Cc2cc(Cl)cc(Cc3cc(Cl)cc(Cc4cc(Cl)cc(Cc5cc(Cl)cc(CO)c5O)c4O)c3O)c2O)c1O

>  <growth inhibition (%)>
-17.4

$$$$
>  <compound>
C#CCN(CC#C)C(=O)CCCCCCCCC=C

>  <growth inhibition (%)>
96.5

$$$$
>  <compound>
CNC(=O)c1ccc[n+](CC(=O)NCc2ccccc2)c1

>  <growth inhibition (%)>
-11.3

$$$$
>  <compound>
CCOC(=O)N1c2ccccc2OC1C#N (configuration not stated)

>  <growth inhibition (%)>
1.3

$$$$
>  <compound>
CN(C)CCCNC(=O)NCCCCCCNC(=O)NCCCN(C)C

>  <growth inhibition (%)>
-9.85

$$$$
>  <compound>
CC1=C(CC2C(=O)N(c3ccccc3)S(=O)(=O)NC2C)C(=O)N(c2ccccc2)S(=O)(=O)N1C (configuration not stated)

>  <growth inhibition (%)>
4

$$$$
>  <compound>
S=C(/C=C1\SC(=Nc2ccccc2)C(=Nc2ccccc2)N1c1ccccc1)Nc1ccccc1

>  <growth inhibition (%)>
-9

$$$$
>  <compound>
CC(C)CC(C)(O)C(N)=O (configuration not stated)

>  <growth inhibition (%)>
-7.55

$$$$

---

Experiment: NCI Yeast Anticancer Drug Screen. Data for the cln2 rad14 strain (AID 165);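 note: 0% = growth equal to vehicle treated cultures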
Conditions: S. cerevisiae cln2 rad14 strain, at 50.0 µM, hits give high values
This is part of a sample that, as a whole, favours compounds with a hit. Of some 79,000 tested, about 15% had one in any assay.

>  <compound>
CC1OC(OC(=O)c2ccc([N+](=O)[O-])cc2)CC(OC(=O)c2ccc([N+](=O)[O-])cc2)C1OC(=O)c1ccc([N+](=O)[O-])cc1 (stereo unspecified)

>  <growth inhibition, %>
24.7

$$$$
>  <compound>
O=C(CCCn1cnc([N+](=O)[O-])n1)NCCCn1ccnc1[N+](=O)[O-]

>  <growth inhibition, %>
-3.45

$$$$
>  <compound>
Cc1cc(C)[n+](C)c(/C=C\c2ccc(Cl)cc2)n1

>  <growth inhibition, %>
3

$$$$
>  <compound>
CC(=O)Oc1ccc(C2CC(=O)N(CCN(C)C)C2=O)cc1 (stereo unspecified)

>  <growth inhibition, %>
-6.35

$$$$
>  <compound>
O=C(O)c1c2ccccc2nc2c1sc1ccccc12

>  <growth inhibition, %>
-63.6

$$$$
>  <compound>
CCOC(=O)C1=C(C)c2ccccc2OC1C(=O)O (stereo unspecified)

>  <growth inhibition, %>
-23.4

$$$$
>  <compound>
CC(=O)OCC(NC(=O)C(N)CC(=O)O)C(=O)NCC(=O)Oc1ccc([N+](=O)[O-])cc1 (stereo unspecified)

>  <growth inhibition, %>
12

$$$$
>  <compound>
C=C(C)C(O)CC(C)C (stereo unspecified)

>  <growth inhibition, %>
7.65

$$$$
>  <compound>
COC(=O)/C(C#N)=C/c1ccco1

>  <growth inhibition, %>
2.5

$$$$
>  <compound>
Cc1cc(C)c(C2=[N+]([O-])ON3CCc4ccccc4C23)c(C)c1 (stereo unspecified)

>  <growth inhibition, %>
4.5

$$$$
>  <compound>
N#CC(C(=N/NC(N)=S)/C(=N\NC(N)=S)C(C#N)c1ccccc1)c1ccccc1 (stereo unspecified)

>  <growth inhibition, %>
-8.25

$$$$
